- STUDY_SYSTEM: HLA-B*15:17
- PROTOCOL_TEXT: IEDB peptide-MHC binding, purified MHC/direct/fluorescence; filed as Kd, often an IC50 or EC50 that approximates it; bounds were set here for any values at or beyond the usual limits of such assays
- CONDITION_SUMMARY: source organism: Yellow fever virus
pKd: −log10 of the molar value.

# SEQ, pKd
records = [
    ("LAVMGDAAW", 7.57),
]

----------
- STUDY_SYSTEM: HLA-B*51:01
- PROTOCOL_TEXT: IEDB peptide-MHC binding, purified MHC/competitive/radioactivity; filed as Kd, often an IC50 or EC50 that approximates it; bounds were set here for any values at or beyond the usual limits of such assays
- CONDITION_SUMMARY: source organism: Vaccinia virus WR
TEST_READOUT: Kd (µM)

# SEQ, TEST_READOUT, SCALE_UNIT, QUALIFIER_SYMBOL, RESULT_NUMBER
records = [
    ("LPRVVGGKTV", "Kd", "µM", "=", 0.0326),
    ("TFMIITSTK", "Kd", "µM", "≥", 77.5),
    ("RPTPKKMNIV", "Kd", "µM", "≥", 69.6),
    ("KVFSFWLLCK", "Kd", "µM", "=", 17),
]

----------
- STUDY_SYSTEM: HLA-A*02:11
- PROTOCOL_TEXT: IEDB peptide-MHC binding, purified MHC/direct/fluorescence; filed as Kd, often an IC50 or EC50 that approximates it; bounds were set here for any values at or beyond the usual limits of such assays
- CONDITION_SUMMARY: source organism: Salmonella enterica subsp. enterica serovar Typhi

# SEQ, STUDY_SYSTEM, Kd, nM
data = [
    ("FIKNPACTV", "HLA-A*02:11", 2),
]

----------
- STUDY_SYSTEM: HLA-B*35:01
- PROTOCOL_TEXT: IEDB peptide-MHC binding, purified MHC/competitive/fluorescence; filed as Kd, often an IC50 or EC50 that approximates it; bounds were set here for any values at or beyond the usual limits of such assays
- CONDITION_SUMMARY: source organism: Vaccinia virus WR
TEST_READOUT: Kd

# SEQ, TEST_READOUT, RESULT
rows = [
    ("YHRPLTGYM", "Kd", "≥ 20 µM"),
]

----------
- STUDY_SYSTEM: HLA-B*18:01
- PROTOCOL_TEXT: IEDB peptide-MHC binding, purified MHC/competitive/radioactivity; filed as Kd, often an IC50 or EC50 that approximates it; bounds were set here for any values at or beyond the usual limits of such assays
- CONDITION_SUMMARY: source organism: Mammarenavirus machupoense
pKd: −log10 of the molar value.

# SEQ, STUDY_SYSTEM, pKd
records = [
    ("NDNFLMRNV", "HLA-B*18:01", "≤ 4.12"),
    ("SDHLISEML", "HLA-B*18:01", "≤ 4.11"),
    ("PDFNSLISI", "HLA-B*18:01", "≤ 4.11"),
    ("AEWLEMICF", "HLA-B*18:01", 6.79),
    ("KEINLLSQT", "HLA-B*18:01", "≤ 4.11"),
]

----------
- STUDY_SYSTEM: HLA-A*33:01
- PROTOCOL_TEXT: IEDB peptide-MHC binding, purified MHC/competitive/radioactivity; filed as Kd, often an IC50 or EC50 that approximates it; bounds were set here for any values at or beyond the usual limits of such assays
- CONDITION_SUMMARY: source organism: Vaccinia virus WR
pKd: −log10 of the molar value.
Threshold check on pKd: at or above 6 gives 1, strictly below gives 0.

# SEQ, STUDY_SYSTEM, GROUP_LABEL
rows = [
    ("FLRSIAMLK", "HLA-A*33:01", 1),
    ("STIANSNIIK", "HLA-A*33:01", 0),
    ("VIENGILKK", "HLA-A*33:01", 0),
    ("SSSVDVDIY", "HLA-A*33:01", 0),
    ("IILARNEEGR", "HLA-A*33:01", 1),
    ("LFHGGEPIK", "HLA-A*33:01", 0),
    ("IFVSLVKKNK", "HLA-A*33:01", 1),
    ("KSIIIPFIAY", "HLA-A*33:01", 0),
    ("RASTTENAAY", "HLA-A*33:01", 0),
    ("FAEESYTYYY", "HLA-A*33:01", 0),
    ("CSKHMDARY", "HLA-A*33:01", 0),
    ("SFKLILAEY", "HLA-A*33:01", 0),
    ("PMVIENGILK", "HLA-A*33:01", 0),
    ("ILKINSVKY", "HLA-A*33:01", 0),
    ("GMDYEEYKSK", "HLA-A*33:01", 0),
    ("ALFMYYAKR", "HLA-A*33:01", 1),
    ("YSRVNHAKY", "HLA-A*33:01", 0),
    ("LSEYETMVDY", "HLA-A*33:01", 0),
    ("TAKVIKLVK", "HLA-A*33:01", 0),
    ("YLLVKWIRK", "HLA-A*33:01", 0),
    ("NTLISSDGAR", "HLA-A*33:01", 1),
    ("ITGNNIILSK", "HLA-A*33:01", 0),
    ("GLLDSIKMIY", "HLA-A*33:01", 0),
    ("QLLRLMADK", "HLA-A*33:01", 0),
    ("KLDDVEKEK", "HLA-A*33:01", 0),
    ("KSINKVYGR", "HLA-A*33:01", 0),
    ("YTYDRVDIY", "HLA-A*33:01", 0),
    ("NSSAVVDNK", "HLA-A*33:01", 0),
    ("TFMIITSTK", "HLA-A*33:01", 1),
    ("DIDILQTNSR", "HLA-A*33:01", 1),
    ("SILSLETVK", "HLA-A*33:01", 0),
    ("CIFAFIDFSK", "HLA-A*33:01", 1),
    ("KTLDISSFY", "HLA-A*33:01", 0),
    ("NVFKAMETFK", "HLA-A*33:01", 1),
    ("IFNEDTSYY", "HLA-A*33:01", 0),
    ("GVTSSGAIYK", "HLA-A*33:01", 0),
    ("ELYDTSPTKR", "HLA-A*33:01", 1),
    ("MLFTSTNDK", "HLA-A*33:01", 0),
    ("NSKYSYELY", "HLA-A*33:01", 0),
    ("DAKNDDWKKY", "HLA-A*33:01", 0),
    ("IVSLCPTKK", "HLA-A*33:01", 0),
    ("LFYTFAISY", "HLA-A*33:01", 0),
    ("DTEDIVSDSK", "HLA-A*33:01", 0),
    ("PLFDFVNEK", "HLA-A*33:01", 0),
    ("ILQLIRHGR", "HLA-A*33:01", 1),
    ("DVDTSASEIK", "HLA-A*33:01", 0),
    ("IMDKEQLLK", "HLA-A*33:01", 0),
    ("ELGFNYPEY", "HLA-A*33:01", 0),
    ("RSKQKIGDLR", "HLA-A*33:01", 0),
    ("PVLKAMHDK", "HLA-A*33:01", 0),
    ("PLHILASNKK", "HLA-A*33:01", 0),
    ("ASTISWMMK", "HLA-A*33:01", 0),
    ("KLVKSLVDK", "HLA-A*33:01", 0),
    ("YTFFSYLMK", "HLA-A*33:01", 0),
    ("VMNFIPIIY", "HLA-A*33:01", 0),
    ("VSLVKKNKKR", "HLA-A*33:01", 0),
    ("FVNEKYCIIK", "HLA-A*33:01", 0),
    ("ESKAKQLCY", "HLA-A*33:01", 0),
    ("YLINPNILY", "HLA-A*33:01", 0),
    ("VIRLLIWAY", "HLA-A*33:01", 0),
    ("LVKSYSLIR", "HLA-A*33:01", 0),
]

----------
- STUDY_SYSTEM: HLA-A*02:06
- PROTOCOL_TEXT: IEDB peptide-MHC binding, purified MHC/competitive/fluorescence; filed as Kd, often an IC50 or EC50 that approximates it; bounds were set here for any values at or beyond the usual limits of such assays
- CONDITION_SUMMARY: source organism: Variola virus

# SEQ, Kd
rows = [
    ("VYSFDESSF", "≥ 20 µM"),
]
